Taken from BigSolDB 2.1.

Details: in acetic acid, 312.15 K
value type: solubility (mole fraction)
Answer as a number with no unit attached.

Query: What does the data say about its solubility (mole fraction)? Entry: Nc1ncnc2c1ncn2[C@@H]1O[C@H](COP(=O)(O)O)[C@@H](O)[C@H]1O
Result: 0.000395

----------
Conditions: in ethanol, 318.15 K
value type: solubility (mole fraction)
Answer with a number only.

Query: Fill blank: measured solubility (mole fraction) of the compound Nc1ncnc2c1ncn2[C@@H]1O[C@H](COP(=O)(O)O)[C@@H](O)[C@H]1O is ____.
Result: 1.06e-05

----------
Settings: in water, 300.2 K
value type: solubility (mole fraction)

Query: Requested read-out: solubility (mole fraction). Entry: Nc1ncnc2c1ncn2[C@@H]1O[C@H](COP(=O)(O)O)[C@@H](O)[C@H]1O
Result: 0.000412

----------
Conditions: in water, 312.2 K
value type: solubility (mole fraction)
Response field accepts a number only; no unit should be typed.

Query: Fill in: solubility (mole fraction) of Nc1ncnc2c1ncn2[C@@H]1O[C@H](COP(=O)(O)O)[C@@H](O)[C@H]1O is ___
Result: 0.000636

----------
Conditions: in methanol, 294.15 K
value type: solubility (mole fraction)
# respond with the number and nothing more

Query: Looking for the measured solubility (mole fraction) of Nc1ncnc2c1ncn2[C@@H]1O[C@H](COP(=O)(O)O)[C@@H](O)[C@H]1O , can you help?
Result: 9.35e-06

----------
Details: in methanol, 288.15 K
value type: solubility (mole fraction)
API doc: respond with a numeric literal and nothing else, no unit.

Query: Which solubility (mole fraction) is listed for Nc1ncnc2c1ncn2[C@@H]1O[C@H](COP(=O)(O)O)[C@@H](O)[C@H]1O ?
Result: 8.59e-06

----------
Details: in ethanol, 324.15 K
value type: solubility (mole fraction)
Give a plain numeric answer without units written out.

Query: Need solubility (mole fraction) of Nc1ncnc2c1ncn2[C@@H]1O[C@H](COP(=O)(O)O)[C@@H](O)[C@H]1O , thanks.
Result: 1.24e-05

----------
Conditions: in acetic acid, 288.15 K
value type: solubility (mole fraction)

Query: Record request: solubility (mole fraction) value, item Nc1ncnc2c1ncn2[C@@H]1O[C@H](COP(=O)(O)O)[C@@H](O)[C@H]1O
Result: 7.85e-05

----------
Details: in methanol, 318.15 K
value type: solubility (mole fraction)
Number only, please.

Query: Bench note: what solubility (mole fraction) did Nc1ncnc2c1ncn2[C@@H]1O[C@H](COP(=O)(O)O)[C@@H](O)[C@H]1O show?
Result: 1.41e-05

----------
Conditions: in acetic acid, 306.15 K
value type: solubility (mole fraction)
Returns: the value as a bare number; no unit string appended.

Query: For the compound Nc1ncnc2c1ncn2[C@@H]1O[C@H](COP(=O)(O)O)[C@@H](O)[C@H]1O , what solubility (mole fraction) is on record?
Result: 0.000276

----------
Details: in acetic acid, 330.15 K
value type: solubility (mole fraction)

Query: Please report the recorded solubility (mole fraction) for Nc1ncnc2c1ncn2[C@@H]1O[C@H](COP(=O)(O)O)[C@@H](O)[C@H]1O .
Result: 0.000967

----------
Settings: in water, 306.2 K
value type: solubility (mole fraction)
Form rule: numeric answer, no unit written next to it.

Query: Given the entry Nc1ncnc2c1ncn2[C@@H]1O[C@H](COP(=O)(O)O)[C@@H](O)[C@H]1O , report its measured solubility (mole fraction).
Result: 0.000526
